Assay: Cytotoxicity against human KBVIN cells expressing p-glycoprotein after 2 days
Assay type: functional
Conditions: 48 h, read-out: ED50 (the source's name)
Assay Endpoint: EC50 (µg/mL)
Quick note: give the figure in µg/mL, leave out the unit.

Sample `CN[C@H]1CCc2cc(OC)c(O)c(OC)c2-c2ccc(SC)c(=O)cc21.O=C(O)CCC(=O)O` — what was its EC50?
1.35

// same read-out, input: `COc1cc2c(c(OC)c1O)-c1ccc(SC)c(=O)cc1[C@@H](N(C)S(=O)(=O)c1ccccc1[N+](=O)[O-])CC2`
1.49

Follow-up entry: `CCN[C@H]1CCc2cc(OC)c(OC)c(OC)c2-c2ccc(SC)c(=O)cc21`
0.0146

Here is the next molecule: `CN[C@H]1CCc2cc(OC)c(OP(=O)(O)O)c(OC)c2-c2ccc(SC)c(=O)cc21`
1.71

Param item: `COc1cc2c(c(OC)c1OC)-c1ccc(SC)c(=O)cc1[C@@H](N(C)S(=O)(=O)c1ccccc1[N+](=O)[O-])CC2`
0.153
